- study_system: human recombinant HDAC6 (Homo sapiens, UniProt Q9UBN7)
- Construct: purchased Calbiochem Inc. 382180
- Sequence (Q9UBN7 whole entry): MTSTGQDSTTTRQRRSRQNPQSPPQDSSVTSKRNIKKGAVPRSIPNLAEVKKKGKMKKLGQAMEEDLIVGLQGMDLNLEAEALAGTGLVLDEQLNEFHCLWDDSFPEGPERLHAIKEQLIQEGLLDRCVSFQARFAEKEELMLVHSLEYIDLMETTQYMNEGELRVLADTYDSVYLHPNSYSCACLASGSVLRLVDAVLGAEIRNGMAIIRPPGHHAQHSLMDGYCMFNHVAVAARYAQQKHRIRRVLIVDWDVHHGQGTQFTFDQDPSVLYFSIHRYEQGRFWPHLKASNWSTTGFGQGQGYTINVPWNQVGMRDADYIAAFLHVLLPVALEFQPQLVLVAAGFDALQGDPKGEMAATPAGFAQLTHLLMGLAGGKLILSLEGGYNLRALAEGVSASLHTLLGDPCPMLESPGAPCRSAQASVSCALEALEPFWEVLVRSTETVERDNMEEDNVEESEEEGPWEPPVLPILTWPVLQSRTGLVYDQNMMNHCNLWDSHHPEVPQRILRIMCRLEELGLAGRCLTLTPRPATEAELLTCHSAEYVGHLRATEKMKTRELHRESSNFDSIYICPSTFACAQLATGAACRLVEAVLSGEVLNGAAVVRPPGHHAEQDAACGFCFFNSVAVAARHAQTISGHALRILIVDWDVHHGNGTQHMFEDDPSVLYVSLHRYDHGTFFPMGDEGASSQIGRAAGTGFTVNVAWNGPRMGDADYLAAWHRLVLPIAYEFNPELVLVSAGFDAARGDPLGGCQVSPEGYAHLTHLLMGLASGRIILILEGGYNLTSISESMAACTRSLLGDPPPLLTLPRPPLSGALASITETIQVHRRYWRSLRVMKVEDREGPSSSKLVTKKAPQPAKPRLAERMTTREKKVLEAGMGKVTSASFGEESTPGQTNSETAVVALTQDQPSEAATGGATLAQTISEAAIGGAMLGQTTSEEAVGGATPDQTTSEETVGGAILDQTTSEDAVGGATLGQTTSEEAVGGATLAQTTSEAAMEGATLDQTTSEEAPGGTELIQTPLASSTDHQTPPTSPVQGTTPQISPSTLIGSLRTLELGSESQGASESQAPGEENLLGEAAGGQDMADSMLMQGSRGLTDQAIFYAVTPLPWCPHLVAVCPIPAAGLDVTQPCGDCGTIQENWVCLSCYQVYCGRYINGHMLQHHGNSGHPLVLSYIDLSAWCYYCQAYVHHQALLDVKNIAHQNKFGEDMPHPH
- experiment_notes: HDAC6 enzyme activity inhibition (HDAC Fluorimetric Drug Discovery Kit)
- Assay type: biochemical
- condition_summary: HDAC1 IC50 / HDAC6 IC50
Rule: True for HDAC6 selectivity (fold) not less than 1000 fold, False for anything less.

IN: Please check the record `CN1CCN(Cc2cccc(-c3cn(Cc4ccc(-c5nnc(C(F)F)o5)cn4)nn3)c2)CC1` and state if its HDAC6 selectivity (fold) is at or above 1000 fold.
OUT: True

IN: Decide: is the reported value of HDAC6 selectivity (fold) for `CC(C)N1CCN(c2ccc(F)c(-c3cn(Cc4ccc(-c5nnc(C(F)F)o5)cc4)nn3)c2)CC1` equal to or greater than 1000 fold?
OUT: True

IN: Hi team, for `Fc1cc(-c2nnc(C(F)F)o2)ccc1Cn1cc(-c2ccccc2)nn1` , is the recorded HDAC6 selectivity (fold) at or above 1000 fold?
OUT: False

IN: Has `O=C(c1cccc(-c2cn(Cc3ccc(-c4nnc(C(F)F)o4)cn3)nn2)c1)N1CCC1` a recorded HDAC6 selectivity (fold) greater than or equal to 1000 fold?
OUT: True

IN: Given the entry `Cc1cccc(-c2cn(Cc3ccc(-c4nnc(C(F)F)o4)cn3)nn2)c1` , answer whether its HDAC6 selectivity (fold) meets or surpasses 1000 fold.
OUT: True

IN: Could you tell me if the measured HDAC6 selectivity (fold) of `FC(F)c1nnc(-c2ccc(Cn3cc([C@@H]4CCCN4C4COC4)nn3)nc2)o1` reaches 1000 fold or more?
OUT: False

IN: Dear colleague, could you confirm whether `CCN1[C@H](C)CN(c2cccc(-c3cn(Cc4ccc(-c5nnc(C(F)F)o5)cc4)nn3)c2)C[C@@H]1C` has HDAC6 selectivity (fold) at or above 1000 fold?
OUT: True

IN: State whether the measured HDAC6 selectivity (fold) reaches 1000 fold, counting equality as reaching it, for `Fc1cc(-c2nnc(C(F)F)o2)ccc1Cn1cc(-c2cccc(CN3CCC3)c2)nn1`
OUT: False

IN: Can `FC(F)c1nnc(-c2ccc(Cn3cnc(Br)c3)nc2)o1` be said to have HDAC6 selectivity (fold) at or above 1000 fold?
OUT: False

IN: Evaluate `C[C@@H]1CN(c2cccc(-c3cn(Cc4ccc(-c5nnc(C(F)F)o5)cc4)nn3)c2)C[C@H](C)N1C` : HDAC6 selectivity (fold) at minimum 1000 fold?
OUT: True

IN: Identify whether the reported HDAC6 selectivity (fold) of the following molecule is 1000 fold or greater: `FC(F)c1nnc(-c2ccc(Cn3cc(-c4cccc(CN5CCC(F)(F)CC5)c4)nn3)nc2)o1`
OUT: True

IN: Is it the case that `CN1CCN(Cc2cccc(-c3cn(Cc4ccc(-c5nnc(C(F)F)o5)cc4F)nn3)c2)CC1` has HDAC6 selectivity (fold) reaching or exceeding 1000 fold?
OUT: False

IN: Has `Fc1cc(-c2nnc(C(F)F)o2)ccc1Cn1cc(-c2cc(C(F)(F)F)cc(C(F)(F)F)c2)nn1` a recorded HDAC6 selectivity (fold) greater than or equal to 1000 fold?
OUT: False

IN: Given `FC(F)c1nnc(-c2ccc(Cn3cc(-c4ccccc4)nn3)nc2)o1` , state whether its HDAC6 selectivity (fold) is at least 1000 fold.
OUT: True

IN: Textbook exercise: given the entry `CC(C)(C)OC(=O)N1CCC(Cc2cn(Cc3ccc(-c4nnc(C(F)F)o4)cn3)nn2)CC1` , state whether its HDAC6 selectivity (fold) is greater than or equal to 1000 fold.
OUT: False
